The measured values listed here are drawn from paper PMC5678078.

- assay.system: T1, recombinant matriptase protease domain with an N-terminal thioredoxin tag (Trx-MTX PD) (human, UniProt Q9Y5Y6 615-854)
- T1 chain: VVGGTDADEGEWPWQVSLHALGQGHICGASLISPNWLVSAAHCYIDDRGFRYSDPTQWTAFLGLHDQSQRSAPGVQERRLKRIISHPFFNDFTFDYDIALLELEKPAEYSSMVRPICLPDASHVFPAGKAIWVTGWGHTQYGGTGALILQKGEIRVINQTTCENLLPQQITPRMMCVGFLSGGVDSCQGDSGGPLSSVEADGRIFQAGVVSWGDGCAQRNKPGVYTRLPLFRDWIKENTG
- method: SPR
pKd: −log10 of the molar value.

# binder, pKd
rows = [
    ("GST fusion protein of HAI-2 Kunitz domain 1 (GST-KD1) (domain or fragment) CLVSKVVGRCRASMPRWWYNVTDGSCQLFVYGGCDGNSNNYLTKEECLKKC", 7.34),
    ("GST fusion protein of HAI-2 Kunitz domain 2 (GST-KD2) (domain or fragment) CTANAVTGPCRASFPRWYFDVERNSCNNFIYGGCRGNKNSYRSEEACMLRC", 7.45),
]
